Target under test: recombinant human liver glycogen phosphorylase (Homo sapiens)
Construct: made in house; host or cells: Sf9 insect cells (crude homogenate, diluted, used as the enzyme solution)
Sequence (P06737 whole entry): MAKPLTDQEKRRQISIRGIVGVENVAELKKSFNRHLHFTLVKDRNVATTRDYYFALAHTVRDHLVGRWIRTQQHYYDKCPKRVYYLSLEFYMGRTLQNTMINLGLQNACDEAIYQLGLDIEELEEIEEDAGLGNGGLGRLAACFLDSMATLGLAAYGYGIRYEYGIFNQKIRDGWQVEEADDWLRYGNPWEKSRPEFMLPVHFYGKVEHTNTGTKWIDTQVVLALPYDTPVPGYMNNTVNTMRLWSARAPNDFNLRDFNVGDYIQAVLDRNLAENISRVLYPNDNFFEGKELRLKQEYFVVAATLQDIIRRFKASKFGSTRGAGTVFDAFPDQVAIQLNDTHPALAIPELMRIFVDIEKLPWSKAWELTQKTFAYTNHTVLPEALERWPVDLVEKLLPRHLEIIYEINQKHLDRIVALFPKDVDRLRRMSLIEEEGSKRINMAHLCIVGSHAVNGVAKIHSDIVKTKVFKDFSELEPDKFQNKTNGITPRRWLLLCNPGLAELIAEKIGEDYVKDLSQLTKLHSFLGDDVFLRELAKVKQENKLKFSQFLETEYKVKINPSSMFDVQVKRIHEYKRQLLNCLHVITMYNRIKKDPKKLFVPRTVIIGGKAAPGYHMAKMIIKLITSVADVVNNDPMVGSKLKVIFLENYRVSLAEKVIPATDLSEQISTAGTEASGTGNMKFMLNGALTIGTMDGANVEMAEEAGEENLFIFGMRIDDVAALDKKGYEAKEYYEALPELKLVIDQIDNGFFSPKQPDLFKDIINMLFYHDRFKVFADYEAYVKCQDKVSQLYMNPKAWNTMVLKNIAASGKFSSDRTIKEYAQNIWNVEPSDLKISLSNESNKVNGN
Assay comment: Measuring liver glycogen phosphorylase activity (forward reaction system, NADPH absorbance at 340 nm)
Format: biochemical
Condition: compound concentration 300 nmol (in parentheses); read-out: inhibition rate (%) at a certain concentration
Measured inhibition at 0.3 µM by item
Record the value in %, omitting the unit from your answer.

[[record]]
compound = "O=C(NCc1ccccc1)c1cc(NC(=O)c2cc(Cl)ccc2F)[nH]n1 [Example 4-20]"
quantitative_result = 3.3

[[record]]
compound = "O=C(NCc1ccccc1)c1cc(NC(=O)c2cc(F)ccc2C(F)(F)F)[nH]n1 [Example 4-33]"
quantitative_result = 15.2

[[record]]
compound = "COCCN(CCOC)C(=O)c1cc(NC(=O)c2cc(F)c(F)cc2Cl)[nH]n1 [Example 1-94]"
quantitative_result = 36.5


Now for the compound whose inhibition at 0.3 µM we want.
Task item: Please tell me: inhibition at 0.3 µM of CCCCN(C(=O)c1cc(NC(=O)c2cc(F)c(F)cc2Cl)[nH]n1)C1CCN(C(=O)C(=O)OCC)CC1 [Example 1-112] , system recombinant human liver glycogen phosphorylase (Homo sapiens)?
Reply: 49.9
